Biological target: human ATX (Homo sapiens (Human))
Experiment: Human ATX enzyme inhibition assay (fluorescence quenching, MR121 substrate)
Assay type: biochemical
Value kind: IC50 (nM)

The examples below pair each entry with its known result.
Prompt line: Look at this compound and give its reported IC50. NS(=O)(=O)c1ccc(C(=O)N2CC3=C(CN(C(=O)COc4ccc(OC(F)(F)F)cc4)C3)C2)nc1
Response line: 7

Prompt line: Look at this compound and give its reported IC50. NS(=O)(=O)c1ccc(C(=O)N2CC3=C(CN(C(=O)/C=C/c4ccc(OC(F)(F)F)cc4)C3)C2)nc1
Response line: 4

Prompt line: Look at this compound and give its reported IC50. NS(=O)(=O)c1ccc(C(=O)N2CC3=C(CN(C(=O)COc4ccc(OC(F)(F)F)cc4)C3)C2)c(F)c1
Response line: 4

a = CC(C)(C)C(=O)Nc1cc(C#N)cnc1COC(=O)N1CC2=C(C1)CN(C(=O)c1ccc(S(N)(=O)=O)c(F)c1F)C2
b = NS(=O)(=O)c1ccc(C(=O)N2CC3=C(CN(C(=O)CCc4ccc(OC(F)(F)F)cc4)C3)C2)nc1
c = NS(=O)(=O)c1ccc(C(=O)N2CC3=C(CN(C(=O)OCc4ccc(OC(F)(F)F)cc4)C3)C2)c(F)c1
Prompt line: Sort ascending by IC50. Put the labels in the requested order and list them out.
Response line: c, a, b
(c: 2 nM, a: 3 nM, b: 5 nM)

* * *

Molecular target: UniProt Q13822
Assay: Human ATX enzyme inhibition assay (fluorescence quenching, MR121 substrate)
Assay type: biochemical
Conditions: human His-tagged ATX 30 nM, MR121 substrate 1 μM, 30° C.; read-out: ATX IC50
pIC50: −log10 of the molar value.
Value kind: pIC50

1 = CC(C)(C)C(=O)Nc1ccc(Cl)nc1COC(=O)N1CC2=C(C1)CN(C(=O)c1cc(F)c(S(N)(=O)=O)cc1F)C2
2 = CC(C)(C)C(=O)Nc1cc(Cl)cnc1COC(=O)N1CC2=C(C1)CN(C(=O)c1ccc(S(N)(=O)=O)cc1F)C2
Prompt line: Identify the item whose pIC50 is the smaller number: 1 or 2 Answer by quoting the chosen item's label.
Response line: 1
(1: 7.82, 2: 8.22)

* * *

Target: human ATX (Homo sapiens (Human), UniProt Q13822)
Assay: Human ATX enzyme inhibition assay (fluorescence quenching, MR121 substrate)
Type: biochemical
Value kind: IC50 (nM)

Prompt line: Look at this compound and give its reported IC50. Cc1cn(Cc2cc(C(F)(F)F)ccc2CCC(=O)N2CC3=C(C2)CN(C(=O)c2ccc(S(N)(=O)=O)cc2F)C3)nn1
Response line: 1

1 = CC(C)(C)C(=O)Nc1cc(Cl)c(Cl)nc1COC(=O)N1CC2=C(C1)CN(C(=O)c1c(F)cc(S(N)(=O)=O)cc1F)C2
2 = Cc1nnn(Cc2cc(C#N)ccc2CCC(=O)N2CC3=C(C2)CN(C(=O)c2ccc(S(N)(=O)=O)cc2F)C3)n1
Prompt line: Identify the item whose IC50 is the smaller number: 1 or 2 Answer by quoting the chosen item's label.
Response line: 2

* * *

Biological target: UniProtKB P00918
Test: Human carbonic anhydrase-II inhibition assay (absorbance, 4-nitrophenyl acetate substrate)
Assay type: biochemical
Value kind: IC50 (µM)

The examples below pair each entry with its known result.
Prompt line: Look at this molecule and give its reported IC50. NS(=O)(=O)c1ccc(C(=O)N2CC3=C(CN(C(=O)COc4ccc(OC(F)(F)F)cc4)C3)C2)nc1
Response line: 0.017

Prompt line: Look at this molecule and give its reported IC50. CC(C)(C)C(=O)Nc1cc(Cl)c(Cl)nc1COC(=O)N1CC2=C(C1)CN(C(=O)c1c(F)cc(S(N)(=O)=O)cc1F)C2
Response line: 0.0115

Prompt line: Look at this molecule and give its reported IC50. NS(=O)(=O)c1ccc(C(=O)N2CC3=C(CN(C(=O)/C=C/c4ccc(OC(F)(F)F)cc4)C3)C2)nc1
Response line: 0.017

I = CC(C)(C)C(=O)Nc1cc(C(F)(F)F)cnc1COC(=O)N1CC2=C(C1)CN(C(=O)c1ncc(S(N)(=O)=O)cc1F)C2
II = NS(=O)(=O)c1ccc(C(=O)N2CC3=C(CN(C(=O)CCc4ccc(OC(F)(F)F)cc4)C3)C2)nc1
III = NS(=O)(=O)c1ccc(C(=O)N2CC3=C(CN(C(=O)OCc4ccc(OC(F)(F)F)cc4)C3)C2)c(F)c1
IV = NS(=O)(=O)c1ccc(C(=O)N2CCC3=C(CCN(C(=O)OCc4ccc(OC(F)(F)F)cc4)C3)C2)c(F)c1
Prompt line: // ranking: key=IC50, reverse=True Put the labels in the requested order and list them out.
Response line: IV, II, III, I
(IV: 0.018 µM, II: 0.012 µM, III: 0.006 µM, I: 0.0025 µM)

Reference source for all entries: patent US10647719B2
